Listed compounds paired with reported thermal shift (delta Tm)
target: 15-hydroxyprostaglandin dehydrogenase [NAD(+)] (Homo sapiens); assay: Thermal Shift Assay for Inhibitors of HPGD (15-Hydroxyprostaglandin Dehydrogenase); conditions: Recombinant HPGD thermal shift, SYPRO orange DSF, at 250 µM, stronger effect = higher value
Calls of active or inactive are those of the source.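 How the source made its calls: active means melting temperature shift above 3 C; inconclusive means shift above 1 C but not above 3 C; inactive means the rest.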
recorded endpoint: thermal shift (delta Tm)

[[record]]
compound = "COCCNC(=O)C1CCC(Cn2c(=S)[nH]c3ccccc3c2=O)CC1 (configuration not stated)"
recorded_endpoint = "thermal shift (delta Tm)"
recorded_result = "3.7 C (active)"

[[record]]
compound = "O=c1[nH]c(SCc2ccccc2Cl)nc2c1CCC2"
recorded_endpoint = "thermal shift (delta Tm)"
recorded_result = "9.2 C (active)"

[[record]]
compound = "O=C(c1ccc2c(c1)OCO2)N1CCc2ccccc2C1"
recorded_endpoint = "thermal shift (delta Tm)"
recorded_result = "3.3 C (active)"

[[record]]
compound = "O=C(c1ccc(COc2ccccc2Br)cc1)N1CCCCC1"
recorded_endpoint = "thermal shift (delta Tm)"
recorded_result = "7.1 C (active)"

[[record]]
compound = "O=C(CCc1ccc(Oc2cc([N+](=O)[O-])cc([N+](=O)[O-])c2)cc1)N1CCCCC1"
recorded_endpoint = "thermal shift (delta Tm)"
recorded_result = "3.1 C (active)"

[[record]]
compound = "COc1ccc2cc(C(=O)N3CCCCCC3)sc(=O)c2c1OC"
recorded_endpoint = "thermal shift (delta Tm)"
recorded_result = "3.2 C (active)"

[[record]]
compound = "CC1CCCN(C(=O)c2ccc(COc3ccccc3Br)cc2)C1 (configuration not stated)"
recorded_endpoint = "thermal shift (delta Tm)"
recorded_result = "3.8 C (active)"

[[record]]
compound = "Cc1ccccc1CSc1nc2ccccc2c(=O)[nH]1"
recorded_endpoint = "thermal shift (delta Tm)"
recorded_result = "6.1 C (active)"

[[record]]
compound = "O=C(CSc1nc(-c2ccccc2)nn1C(=O)c1ccccc1)Nc1cccc([N+](=O)[O-])c1"
recorded_endpoint = "thermal shift (delta Tm)"
recorded_result = "4 C (active)"

[[record]]
compound = "O=C(c1ccc2c(c1)OCCO2)N1CCCCC1"
recorded_endpoint = "thermal shift (delta Tm)"
recorded_result = "3.5 C (active)"

[[record]]
compound = "COc1ccc(OC)c(C(=O)c2ccc(C(=O)N3CCCCC3)cc2)c1"
recorded_endpoint = "thermal shift (delta Tm)"
recorded_result = "3 C (active)"

[[record]]
compound = "Fc1ccccc1CSc1nc2ncc(Br)cc2[nH]1"
recorded_endpoint = "thermal shift (delta Tm)"
recorded_result = "7.6 C (active)"


----------
molecular target: 15-hydroxyprostaglandin dehydrogenase [NAD(+)] (Homo sapiens); assay: Thermal Shift Assay for Inhibitors of HPGD (15-Hydroxyprostaglandin Dehydrogenase); settings: Recombinant HPGD thermal shift, SYPRO orange DSF, measured here: delta Tm with NADH cofactor, at 250 µM, stronger effect = higher value
Kindly return 1 if reported thermal shift (delta Tm) is no lower than 3 C; return -1 if it is lower.

[[record]]
compound = "Cc1ccc(C)c(Cn2nnc3c(=O)[nH]c(C(=O)NCc4ccco4)nc32)c1"
assigned_category = 1

[[record]]
compound = "O=C(CSc1nc(-c2ccccc2)nn1C(=O)c1ccccc1)Nc1cccc([N+](=O)[O-])c1"
assigned_category = -1

[[record]]
compound = "O=C(c1ccc2c(c1)OCCO2)N1CCCCC1"
assigned_category = 1

[[record]]
compound = "O=C(CSc1nc2ncc(Br)cc2[nH]1)c1cccc([N+](=O)[O-])c1"
assigned_category = -1

[[record]]
compound = "Fc1ccccc1CSc1nc2ncc(Br)cc2[nH]1"
assigned_category = -1

[[record]]
compound = "COc1ccc(OC)c(C(=O)c2ccc(C(=O)N3CCCCC3)cc2)c1"
assigned_category = 1

[[record]]
compound = "O=C(c1ccc(N2C(=O)C3CC=C(Cl)CC3C2=O)cc1)N1CCCCC1 (stereo not drawn)"
assigned_category = 1

[[record]]
compound = "Cc1cccc(-n2cnc3cc(C(=O)N4CCCCC4)ccc32)c1"
assigned_category = 1

[[record]]
compound = "COc1ccc(-c2cc(C(F)(F)F)n3nc(C(=O)N4CCCCC4)cc3n2)cc1OC"
assigned_category = 1

[[record]]
compound = "Cc1cc(-c2nnc3n2CCCCC3)c(C)n1-c1ccccc1"
assigned_category = 1

[[record]]
compound = "Cc1ccccc1CSc1nc2ccccc2c(=O)[nH]1"
assigned_category = -1

[[record]]
compound = "CCN(CC)C(=O)c1sc2nc(-c3cccs3)cc(-c3ccc(Cl)cc3)c2c1N"
assigned_category = -1

[[record]]
compound = "O=C(CCc1ccc(Oc2cc([N+](=O)[O-])cc([N+](=O)[O-])c2)cc1)N1CCCCC1"
assigned_category = 1


Cited source for all entries: PubChem BioAssay AID2427
